- System: RXF 393
- Assay Procedure: NCI tumour cell line growth inhibition, 48 h
Calls of active or inactive are those of the source. No stated cut-off is given here; in the data, active = GI50 up to about 1.1 µM and inactive = higher.
Pick one: active, inactive

See these solved cases before continuing.
O=c1[nH]c(=O)c2c([nH]1)[nH]c1ccc(Br)cc12 ... inactive
COP(=O)(OC)[C@@](O)(c1ccccc1)[C@@H](O)[C@@H](O)c1ccccc1 ... inactive
OC1OC(c2ccco2)C(F)(F)C(F)(F)C1(F)F (centres undefined) ... inactive

Problem: Would you mind telling me which call this test gave Cc1nc2c(C)ccc([N+](=O)[O-])c2c(NCCCN(C)C)c1C ?
Result: inactive

Problem: Would you mind telling me which call this test gave COc1ccc(C2SCC(=O)N2NC(=O)C(C)Oc2ccccc2Cl)cc1 (centres undefined) ?
Result: inactive

Problem: Would you mind telling me which call this test gave Cn1c(S)nc(C(N)=O)c1N ?
Result: inactive

Recorded values, source ChEMBL document CHEMBL1201862.
